Where these numbers come from: the supplement of paper PMC10065799

- System: c-Abl (mouse)
- Assay Info: phosphorylation enrichment, bacterial display (enrichment ratio); higher = better substrate or ligand; peptides without Tyr show the background;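 also: 11-residue human phosphosite peptides and single-mutation variants displayed on the E. coli surface, counted by deep sequencing, each peptide's frequency after selection divided by its frequency in the unselected input library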;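 also: frequency after pTyr selection over input frequency; kinase dosed for 20-30% of maximal phosphorylation in three min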

{"Ordered Residues": "HSREDYFECFQ [ZIM2_Y411_Q408R]", "phosphorylation enrichment": 1.28}
{"Ordered Residues": "HLTNQFMQRVA [PABPC4_Y382_Y382F]", "phosphorylation enrichment": 0.898}
{"Ordered Residues": "MSRDVYSTDCY [NTRK2_Y702_Y706C]", "phosphorylation enrichment": 0.993}
{"Ordered Residues": "MHLRQYELLGG [GNAS_Y391]", "phosphorylation enrichment": 0.541}
{"Ordered Residues": "QKINKYLTVPA [SLC9A1_Y683_N682K]", "phosphorylation enrichment": 0.462}
{"Ordered Residues": "VKMLPYTEVTR [GDI1_Y93_L92P]", "phosphorylation enrichment": 0.492}
{"Ordered Residues": "GPKFGYDEIDN [ACOX1_Y232]", "phosphorylation enrichment": 0.531}
{"Ordered Residues": "PTTKTYFPHFY [HBA1_Y43_D48Y]", "phosphorylation enrichment": 0.785}
{"Ordered Residues": "DPGVSYCTREE [PDHA1_Y301_R302C]", "phosphorylation enrichment": 0.714}
{"Ordered Residues": "GRRNTCFASIA [ACADM_Y352_Y352C_YF]", "phosphorylation enrichment": 0.556}
{"Ordered Residues": "CEAMEYLESKQ [BTK_Y511]", "phosphorylation enrichment": 1.36}
{"Ordered Residues": "KERNQYGGVMV [MMP21_Y347_E349G]", "phosphorylation enrichment": 0.44}
{"Ordered Residues": "NPETCYQRLKK [TK2_Y190]", "phosphorylation enrichment": 0.839}
{"Ordered Residues": "GIVKAYYVRAR [AIPL1_Y267]", "phosphorylation enrichment": 0.558}

---

- Test system: Fer (mouse)
- Assay Info: phosphorylation enrichment, bacterial display (enrichment ratio); higher = better substrate or ligand; peptides without Tyr show the background
# reported phosphorylation enrichment; entries follow
Attribute Measured: phosphorylation enrichment

{"Ordered Residues": "FQLPFYNTVPS [BMPR1A_Y458_M460T_YF]", "Recorded Result": 0.642}
{"Ordered Residues": "SPPILYSFYLD [FCRL6_Y239]", "Recorded Result": 1.37}
{"Ordered Residues": "GGGFGYQKTKK [DDX18_Y643]", "Recorded Result": 0.343}
{"Ordered Residues": "AQAERYDDMAA [YWHAG_Y20_E15A]", "Recorded Result": 0.529}
{"Ordered Residues": "IATTIYSGDKI [UGGT2_Y823_A821T]", "Recorded Result": 0.41}
{"Ordered Residues": "FLNSIYQSRDE [ROS1_Y2227_K2228Q]", "Recorded Result": 0.548}
{"Ordered Residues": "AQQPIYVRVEG [NLRP7_Y318]", "Recorded Result": 0.707}
{"Ordered Residues": "LEITWYPFDME [RIPOR2_Y316_V320M]", "Recorded Result": 0.751}
{"Ordered Residues": "FFDANCDGKEF [MAPRE2_Y162_Y162C_YF]", "Recorded Result": 0.521}
{"Ordered Residues": "GREAEYSDKHG [EPHB4_Y574]", "Recorded Result": 0.472}
{"Ordered Residues": "LLKKMYLMLDN [STAT1_Y203]", "Recorded Result": 0.521}
{"Ordered Residues": "FLGRNYLETLM [DUS3L_Y610_D609N_YF]", "Recorded Result": 0.433}
{"Ordered Residues": "MHLRQYELLGG [GNAS_Y391]", "Recorded Result": 0.507}
{"Ordered Residues": "HEKKAYAFCGT [RPS6KA3_Y226_S227A]", "Recorded Result": 0.46}
